Recorded values, source patent US20260242478A1.

- Assay target: T1, Anti-CD28 Fab (SEQ ID NOs: 696, 697)
- T1 construct: In the phage ELISA the Fab was biotinylated and captured on neutravidin coated plates
- T1 sequence (VH, as listed by the source, chain 1 of 2): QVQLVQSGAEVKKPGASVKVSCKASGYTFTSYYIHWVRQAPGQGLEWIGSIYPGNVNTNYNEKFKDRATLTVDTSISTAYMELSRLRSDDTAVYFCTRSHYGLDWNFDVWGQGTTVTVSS
- T1 sequence (VL, as listed by the source, chain 2 of 2): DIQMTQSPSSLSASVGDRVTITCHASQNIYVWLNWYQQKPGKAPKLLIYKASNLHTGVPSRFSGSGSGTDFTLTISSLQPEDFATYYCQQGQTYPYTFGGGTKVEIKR
- Test protocol: phage binding ELISA on captured anti-CD28 Fab, wells pre-incubated with CD28 antigen as competitor;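 note: crude clonal phage supernatants added to wells preloaded with CD28 antigen, bound phage read by HRP-conjugated anti-M13 antibody, control wells got blocking buffer alone without CD28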
Where no end group is shown, it is not given here.
Please note: yes applies when Anti-CD28 Fab signal in the presence of CD28 is 0.07 or greater, and no applies otherwise.

Binder: YCDGHVEPYLSKCL (cysteine pairing not given here; also: displayed on phage by fusion to pIII, pIII and linker sequence not given here, Peptide-87 library clone, tested as clonal phage supernatant) [Phage-843]
Label: yes

Binder: YCDGHIPEYLAKCL (cysteine pairing not given here; also: displayed on phage by fusion to pIII, pIII and linker sequence not given here, Peptide-87 library clone, tested as clonal phage supernatant) [Phage-841]
Label: no

Binder: YCDGHSQEYMLKCL (cysteine pairing not given here; also: displayed on phage by fusion to pIII, pIII and linker sequence not given here, Peptide-87 library clone, tested as clonal phage supernatant) [Phage-842]
Label: no

Binder: YCDGHKPQYMEKCL (Peptide-87 library clone, tested as clonal phage supernatant) [Phage-844]
Label: yes

Binder: YCDGHAPVYMAKCL (Peptide-87 library clone, tested as clonal phage supernatant) [Phage-850]
Label: no

Does the reported Anti-CD28 Fab signal in the presence of CD28 for YCDGHIGEYMVKCL (Peptide-87 library clone, tested as clonal phage supernatant) [Phage-845] fall at or above the 0.07 mark?
yes

Does the reported Anti-CD28 Fab signal in the presence of CD28 for YCDGHHIEYLAKCL (Peptide-87 library clone, tested as clonal phage supernatant) [Phage-852] fall at or above the 0.07 mark?
yes

Does the reported Anti-CD28 Fab signal in the presence of CD28 for YCDGHSPEYMNKCL (Peptide-87 library clone, tested as clonal phage supernatant) [Phage-849] fall at or above the 0.07 mark?
no
